# Lookup of reported 1-BDC keyed by entry
target: SARS-CoV-2 NSP3 macrodomain (Mac1), P43 crystal form (Severe acute respiratory syndrome coronavirus 2, UniProt P0DTD1); type: binding; details: PanDDA background density correction

{"molecule": "O=C(Nc1ccsc1C(=O)O)c1ccc2c(c1)OCO2 [AVI-316]", "1-BDC": 0.07}
{"molecule": "OC1CCCN(c2ncnc3[nH]ccc23)C1 (stereo not shown) [AVI-3646]", "1-BDC": 0.22}
{"molecule": "Cc1c[nH]c2ncnc(NCC3(O)CCOCC3)c12 [AVI-4194]", "1-BDC": 0.09}
{"molecule": "OC[C@@H]1C[C@H](O)CN1c1ncnc2[nH]ccc12 [AVI-610]", "1-BDC": 0.21}
{"molecule": "OCC(CC1CCCO1)Nc1ncnc2[nH]ccc12 (stereo not shown) [AVI-3660]", "1-BDC": 0.23}
{"molecule": "CN1CCN(c2ncnc3[nH]ccc23)C(CO)C1 (stereo not shown) [AVI-3721]", "1-BDC": 0.06}
{"molecule": "OCC(Cc1ccc(I)cc1)Nc1ncnc2[nH]ccc12 (stereo not shown) [AVI-3686]", "1-BDC": 0.2}

---

molecular target: SARS-CoV-2 NSP3 macrodomain (Mac1) (Severe acute respiratory syndrome coronavirus 2, UniProt P0DTD1); experiment: biochemical; format: binding; settings: preliminary screen, compound at 200 μM, mean of 3-4 technical replicates; read-out: % competition in HTRF assay
observed-property: inhibition at 200 µM (%)

{"molecule": "CCC(CC)(CO)Nc1ncnc2[nH]ccc12", "result-number": 89}
{"molecule": "OCC1C2CCC(C2)N1c1ncnc2[nH]ccc12 (stereo not shown)", "result-number": 92}
{"molecule": "CCC(C)(CO)Nc1ncnc2[nH]ccc12 (stereo not shown)", "result-number": 91}
{"molecule": "OCC1CC2(CCCC2)CN1c1ncnc2[nH]ccc12 (stereo not shown)", "result-number": 90}

---

target: SARS-CoV-2 NSP3 macrodomain (Mac1), P43 crystal form (Severe acute respiratory syndrome coronavirus 2, UniProt P0DTD1); format: binding
observed-property: Refined ligand occupancy (%)

{"compound": "OCC1CC=CCN1c1ncnc2[nH]ccc12 (centres unmarked) [AVI-6002]", "result-number": 50}
{"compound": "CC(C)(O)C1C2CCC2CN1c1ncnc2[nH]ccc12 (centres unmarked) [AVI-4128]", "result-number": 60}
{"compound": "O=C1CCc2cc(C(=O)N3CC(C(=O)O)CCC34CCCC4)c(F)cc2N1 (centres unmarked) [AVI-338]", "result-number": 14}
{"compound": "OC1(CNc2ncnc3[nH]ccc23)CCCOC1 (centres unmarked) [AVI-4311]", "result-number": 50}
{"compound": "CC(C)(O)C1C2CCCCC2CN1c1ncnc2[nH]ccc12 (centres unmarked) [AVI-4127]", "result-number": 60}
{"compound": "Cc1c[nH]c2ncnc(NCC3(O)CCSCC3)c12 [AVI-4195]", "result-number": 28}
{"compound": "CC(C)(C)C1CCCN1c1ncnc2[nH]ccc12 (centres unmarked) [AVI-6000]", "result-number": 14}
{"compound": "CC(C)C1CCCN1c1ncnc2[nH]ccc12 (centres unmarked) [AVI-5216]", "result-number": 40}
{"compound": "OC1(CNc2ncnc3[nH]ccc23)CCCSC1 (centres unmarked) [AVI-4322]", "result-number": 42}
{"compound": "CC1(C)CCN(c2ncnc3[nH]ccc23)C(CO)C1 (centres unmarked) [AVI-5994]", "result-number": 46}
{"compound": "OC1(CNc2ncnc3[nH]ccc23)CCSCC1 [AVI-4319]", "result-number": 32}

---

target: SARS-CoV-2 NSP3 macrodomain (Mac1), P43 crystal form (Severe acute respiratory syndrome coronavirus 2); type: binding; conditions: PanDDA background density correction

{"compound": "OC1(CNc2ncnc3[nH]ccc23)CCCC(C(F)(F)F)C1 (stereo not drawn)", "1-BDC": 0.2}
{"compound": "O=C(O)C1CCCN1S(=O)(=O)c1cccc2nsnc12 (stereo not drawn)", "1-BDC": 0.2}
{"compound": "O=C(O)C(F)(F)F.OC[C@H](Cc1ccc(O)cc1)Nc1ncnc2[nH]ccc12", "1-BDC": 0.2}

---

target: SARS-CoV-2 NSP3 macrodomain (Mac1), P43 crystal form (Severe acute respiratory syndrome coronavirus 2); assay type: binding; conditions: ligand conformations modeled in Mac1 crystal structure
Listing of recorded Total number of conformations by entry.

{"compound": "CNc1ccc(NS(=O)(=O)c2cc3cccc(C)c3s2)cn1 [AVI-345]", "Total number of conformations": 1}
{"compound": "OC1CCN(c2ncnc3[nH]ccc23)C1 (stereo not drawn) [AVI-3661]", "Total number of conformations": 1}
{"compound": "OCC(Cc1ccccn1)Nc1ncnc2[nH]ccc12 (stereo not drawn) [AVI-3696]", "Total number of conformations": 2}

---

molecular target: SARS-CoV-2 NSP3 macrodomain (Mac1), P43 crystal form (Severe acute respiratory syndrome coronavirus 2, UniProt P0DTD1); assay type: binding; details: crystal soak, soak concentration 10 mM
observed-property: Pandda run, overall: Modeled

{"molecule": "OC[C@@H]1C[C@H](F)CN1c1ncnc2[nH]ccc12 [AVI-609]", "observed-property": "Pandda run, overall: Modeled", "result": "TRUE"}
{"molecule": "OC[C@@H]1C[C@H](O)CN1c1ncnc2[nH]ccc12 [AVI-610]", "observed-property": "Pandda run, overall: Modeled", "result": "TRUE"}
{"molecule": "OCC(COCc1ccccc1)Nc1ncnc2[nH]ccc12 (stereo not drawn) [AVI-3709]", "observed-property": "Pandda run, overall: Modeled", "result": "TRUE"}

---

target: SARS-CoV-2 NSP3 macrodomain (Mac1) (Severe acute respiratory syndrome coronavirus 2); experiment: biochemical; type: binding; settings: dose-response fit
Overview of recorded SARS CoV-2 macrodomain HTRF assay: Hillslope for various molecules
observed-property: SARS CoV-2 macrodomain HTRF assay: Hillslope

{"molecule": "OCC1CC2(CCCC2)CN1c1ncnc2[nH]ccc12 (centres unmarked) [AVI-3708]", "assay-system": "SARS-CoV-2 NSP3 macrodomain (Mac1) (Severe acute respiratory syndrome coronavirus 2)", "result-number": 1.1}
{"molecule": "Cc1c[nH]c2ncnc(NCC3(O)CCC(C)CC3)c12 (centres unmarked) [AVI-4331]", "assay-system": "SARS-CoV-2 NSP3 macrodomain (Mac1) (Severe acute respiratory syndrome coronavirus 2)", "result-number": 1.2}
{"molecule": "OC1(CNc2ncnc3[nH]ccc23)COC2CC1C2 (centres unmarked) [AVI-4313]", "assay-system": "SARS-CoV-2 NSP3 macrodomain (Mac1) (Severe acute respiratory syndrome coronavirus 2)", "result-number": 1.2}
{"molecule": "O=S1(=O)CCCC(O)(CNc2ncnc3[nH]ccc23)C1 (centres unmarked) [AVI-4317]", "assay-system": "SARS-CoV-2 NSP3 macrodomain (Mac1) (Severe acute respiratory syndrome coronavirus 2)", "result-number": 1.2}
{"molecule": "OC1(CNc2ncnc3[nH]ccc23)CCCCC1 [AVI-6217]", "assay-system": "SARS-CoV-2 NSP3 macrodomain (Mac1) (Severe acute respiratory syndrome coronavirus 2)", "result-number": 1.1}
{"molecule": "CC1(C)CCC(O)(CNc2ncnc3[nH]ccc23)CC1 [AVI-4310]", "assay-system": "SARS-CoV-2 NSP3 macrodomain (Mac1) (Severe acute respiratory syndrome coronavirus 2)", "result-number": 1.3}
{"molecule": "OC1(CNc2ncnc3[nH]ccc23)CCCSC1 (centres unmarked) [AVI-4322]", "assay-system": "SARS-CoV-2 NSP3 macrodomain (Mac1) (Severe acute respiratory syndrome coronavirus 2)", "result-number": 1.3}
{"molecule": "OC[C@@H]1C[C@H](O)CN1c1ncnc2[nH]ccc12 [AVI-610]", "assay-system": "SARS-CoV-2 NSP3 macrodomain (Mac1) (Severe acute respiratory syndrome coronavirus 2)", "result-number": 1.2}
{"molecule": "CC1CCC(O)(CNc2ncnc3[nH]ccc23)CC1 (centres unmarked) [AVI-4312]", "assay-system": "SARS-CoV-2 NSP3 macrodomain (Mac1) (Severe acute respiratory syndrome coronavirus 2)", "result-number": 1.2}
{"molecule": "Cc1c[nH]c2ncnc(NCC3(O)CCSCC3)c12 [AVI-4195]", "assay-system": "SARS-CoV-2 NSP3 macrodomain (Mac1) (Severe acute respiratory syndrome coronavirus 2)", "result-number": 1.2}
{"molecule": "CC(O)C1CCCN1c1ncnc2[nH]ccc12 (centres unmarked) [AVI-4062]", "assay-system": "SARS-CoV-2 NSP3 macrodomain (Mac1) (Severe acute respiratory syndrome coronavirus 2)", "result-number": 1.1}
{"molecule": "CC1(C)CCN(c2ncnc3[nH]ccc23)C(CO)C1 (centres unmarked) [AVI-5994]", "assay-system": "SARS-CoV-2 NSP3 macrodomain (Mac1) (Severe acute respiratory syndrome coronavirus 2)", "result-number": 1.2}
{"molecule": "OC1CCC(O)(CNc2ncnc3[nH]ccc23)CC1 (centres unmarked) [AVI-6220]", "assay-system": "SARS-CoV-2 NSP3 macrodomain (Mac1) (Severe acute respiratory syndrome coronavirus 2)", "result-number": 1.3}
{"molecule": "CC(C)(O)C1C2CCCCC2CN1c1ncnc2[nH]ccc12 (centres unmarked) [AVI-4127]", "assay-system": "SARS-CoV-2 NSP3 macrodomain (Mac1) (Severe acute respiratory syndrome coronavirus 2)", "result-number": 1.3}

Source: paper doi:10.1101/2024.08.25.609621
